Documented SIF t½ across a set of compounds
test: Stability in simulated intestinal fluid (SIF); format: in vitro ADME; details: simulated intestinal fluid with pancreatin, pH 6.8, 37° C., 20 μM; matrix is 100 fold dilution of standard SIF concentration
Bridge positions count the residues as written; N and C are the ends. Square brackets hold non-standard residues; d marks the D form. Peptide text beside a SMILES is read from it. Trp(7-Me) = Cc1cccc2c(C[C@H](N)C(=O)O)c[nH]c12; 2Nal = N[C@@H](Cc1ccc2ccccc2c1)C(=O)O; AEF = NCCOc1ccc(C[C@H](N)C(=O)O)cc1; Cit = NC(=O)NCCC[C@H](N)C(=O)O; Pen = CC(C)(S)[C@H](N)C(=O)O; αMeK = C[C@](N)(CCCCN)C(=O)O; βAla = NCCC(=O)O
Measurement Name: SIF t½ (h)

>>> recorded_value("CC(=O)NCCCC[C@@H]1NC(=O)[C@H](Cc2c[nH]c3c(C)cccc23)NC(=O)[C@H]([C@@H](C)O)NC(=O)[C@H](CO)NC(=O)[C@@H](NC(C)=O)C(C)(C)SSC(C)(C)[C@@H](C(=O)N[C@@H](Cc2ccc(OCCN)cc2)C(=O)N[C@@H](Cc2ccc3ccccc3c2)C(=O)N[C@@](C)(CCCCN)C(=O)N[C@@H](CCCCNC(C)=O)C(=O)N[C@@H](CC(N)=O)C(=O)N[C@H](CC(C)C)C(N)=O)NC1=O [compound 334] (Ac-[Pen]ST[Trp(7-Me)]K(Ac)[Pen][AEF][2Nal][αMeK]K(Ac)N[dL]-NH2; disulfide 1-6)")
24
>>> recorded_value("CC(=O)NCCCC[C@H](NC(=O)[C@](C)(CCCCN)NC(=O)[C@H](Cc1ccc2ccccc2c1)NC(=O)[C@H](Cc1ccc(OCCN)cc1)NC(=O)[C@H]1NC(=O)[C@H](CCC(N)=O)NC(=O)[C@H](Cc2c[nH]c3c(C)cccc23)NC(=O)[C@H]([C@@H](C)O)NC(=O)[C@H](CCCNC(N)=O)NC(=O)[C@@H](NC(C)=O)C(C)(C)SSC1(C)C)C(=O)N[C@@H](CC(N)=O)C(=O)NCCC(N)=O [compound 238] (Ac-[Pen][Cit]T[Trp(7-Me)]Q[Pen][AEF][2Nal][αMeK]K(Ac)N[βAla]-NH2; disulfide 1-6)")
24
